Lab note: Kd readings collected with human MLKL (full length) (Homo sapiens (Human)) for the following molecules.

Answered cases to consult:
1. Nc1n[nH]c2nccc(-c3ccc(NS(=O)(=O)C(F)F)c(OCc4ccc(F)cc4)c3)c12 :: < 1 nM
2. C[C@H](Oc1cc(-c2nn(C)c3c(-c4cnn(C5(C#N)CC5)c4)cnc(N)c23)ccc1NS(=O)(=O)C(F)F)c1ccc(F)cc1 :: < 1 nM

Now look at this one.
Q: So what Kd did C[C@H](Oc1cc(-c2nn(C)c3c(-c4cnn(C5CCN(C)C(C)(C)C5)c4)cnc(N)c23)ccc1NS(=O)(=O)C(F)F)c1ccc(F)cc1 (single isomer, unassigned) [Compound 154] get with human MLKL (full length) (Homo sapiens (Human))?
A: < 1 nM

---

Lab note: Kd readings collected with human MLKL (full length) (Homo sapiens (Human), UniProt Q8NB16) for the following molecules.
Sequence (Q8NB16 whole entry): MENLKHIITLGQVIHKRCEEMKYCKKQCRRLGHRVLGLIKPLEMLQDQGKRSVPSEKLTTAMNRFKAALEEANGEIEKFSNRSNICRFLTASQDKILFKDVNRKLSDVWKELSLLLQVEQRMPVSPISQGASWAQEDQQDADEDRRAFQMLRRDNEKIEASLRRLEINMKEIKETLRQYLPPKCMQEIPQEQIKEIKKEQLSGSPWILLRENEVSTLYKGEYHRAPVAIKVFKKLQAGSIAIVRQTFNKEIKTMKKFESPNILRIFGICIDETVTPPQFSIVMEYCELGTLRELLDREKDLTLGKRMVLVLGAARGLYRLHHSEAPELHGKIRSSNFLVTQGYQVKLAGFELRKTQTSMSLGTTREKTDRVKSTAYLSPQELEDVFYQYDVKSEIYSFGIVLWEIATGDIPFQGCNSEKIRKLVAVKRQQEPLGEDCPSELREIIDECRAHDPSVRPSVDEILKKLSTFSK

Answered cases to consult:
1) C[C@H](Oc1cc(-c2nn(C)c3c(-c4cnn(C5CCN(C)CC5)c4)cnc(N)c23)ccc1NS(=O)(=O)C(F)F)c1ccc(F)cc1 :: 1 to 100 nM
2) CC(C)n1nc(-c2ccc(NS(=O)(=O)C(F)F)c(O[C@@H](C)c3ccc(F)cc3)c2)c2c(N)ncc(-c3ccncc3)c21 :: < 1 nM
3) C[C@H](Oc1cc(-c2nn(C)c3c(C#CC4CCOCC4)cnc(N)c23)ccc1NS(=O)(=O)C(F)F)c1ccc(F)cc1 :: < 1 nM
4) Cn1nc(-c2ccc(NS(=O)(=O)C(F)F)cc2OCc2cccc(F)c2)c2c(N)ncc(-c3cnn(C4CCOCC4)c3)c21 :: < 1 nM
5) C[C@H](Oc1cc(-c2nn(C)c3c(-c4cnn(C5CCOCC5)c4)cnc(N)c23)ccc1NS(=O)(=O)Cc1ccccc1)c1ccc(F)cc1 [Compound 127] :: 1 to 100 nM

Q: Consider the molecule C[C@H](Oc1cc(-c2nn(C)c3c(-c4cnn(C5CC6(C5)CN(C)C6)c4)cnc(N)c23)ccc1NS(=O)(=O)C(F)F)c1ccc(F)cc1 and give its measured Kd.
A: < 1 nM

---

Lab note: pKd readings collected with UniProtKB Q9D2Y4 for the following molecules.
Sequence (Q9D2Y4 whole entry): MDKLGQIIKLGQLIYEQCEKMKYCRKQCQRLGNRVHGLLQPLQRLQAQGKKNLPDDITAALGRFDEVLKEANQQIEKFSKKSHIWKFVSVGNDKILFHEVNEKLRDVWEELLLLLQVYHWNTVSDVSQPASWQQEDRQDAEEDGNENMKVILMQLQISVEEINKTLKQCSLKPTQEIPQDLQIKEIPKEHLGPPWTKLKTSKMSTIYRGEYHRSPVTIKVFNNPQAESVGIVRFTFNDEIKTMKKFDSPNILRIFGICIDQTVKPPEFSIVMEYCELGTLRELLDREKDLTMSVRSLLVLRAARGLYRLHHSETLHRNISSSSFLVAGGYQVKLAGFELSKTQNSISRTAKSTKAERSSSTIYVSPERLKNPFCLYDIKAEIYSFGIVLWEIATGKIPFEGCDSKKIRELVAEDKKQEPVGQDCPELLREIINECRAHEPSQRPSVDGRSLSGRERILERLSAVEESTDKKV
pKd: −log10 of the molar value.

Answered cases to consult:
1. C[C@H](Oc1cc(-c2nn(C)c3c(-c4cnn(CCO)c4)cnc(N)c23)ccc1NS(=O)(=O)C(F)F)c1ccc(F)cc1 [Compound 15] :: > 9.00
2. C[C@H](Oc1cc(-c2nn(C)c3c(-c4cnn(C)c4)cnc(N)c23)ccc1NS(=O)(=O)C(F)F)c1ccc(F)cc1 [Compound 20] :: > 9.00
3. C[C@H](Oc1cc(-c2coc3c(-c4cnn(C5CCOCC5)c4)cnc(N)c23)ccc1NS(=O)(=O)C(F)F)c1ccc(F)cc1 [Compound 7] :: > 9.00
4. C[C@H](Oc1cc(-c2nn(C)c3c(-c4cnn(C5CCN(CC(F)(F)F)CC5)c4)cnc(N)c23)ccc1NS(=O)(=O)C(F)F)c1ccc(F)cc1 [Compound 61] :: 7.00 to 9.00
5. Cn1nc(-c2ccc(NS(=O)(=O)C(F)F)c(OCc3ccc(F)cc3)c2)c2c(N)ncc(-c3cnn(C4CCOCC4)c3)c21 [Compound 13] :: > 9.00
6. Nc1ncc(-c2cnn(C3CCOCC3)c2)c2occ(-c3ccc(NS(=O)(=O)C(F)F)c(OCc4ccc(F)cc4)c3)c12 [Compound 5] :: > 9.00

Now look at this one.
Q: So what pKd did Nc1n[nH]c2nccc(-c3ccc(NS(=O)(=O)C(F)F)c(OCc4ccc(F)cc4)c3)c12 [Compound 66] get with UniProtKB Q9D2Y4?
A: 7.00 to 9.00

// provenance: patent US20250059188A1
